- TARGET: T1, 4H3939-AA
- T1 chain: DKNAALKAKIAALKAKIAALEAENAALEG
- EXPERIMENTAL PROTOCOL: two-hybrid library CCmax;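 further: natural log of median RNA to DNA barcode read ratio; higher means stronger binding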
- RUN PARAMETERS: mean of both orientations
OBSERVED PROPERTY: interaction score
// no unit string in output, number only

Some binders with known interaction score results, for comparison:
BINDER	OBSERVED PROPERTY	OBS VALUE
DENAALKAEIAALEAENAALEAKIAALKG [4H1558-AA]	interaction score	-0.411
DENAALKAKIAALEAENAALEAEIAALEG [4H1809-AA]	interaction score	-1.45
DEIAALEAKNAALEAEIAALEAKNAALEG [4H391-AA]	interaction score	-1.7
DKNAALKAKIAALKAEIAALKAKNAALKG [4H3920-AA]	interaction score	-0.87

# binder DEIAALEAKIAALKAENAALEAKIAALEG [4H341-AA] ; its interaction score = -1.29

# binder DKIAALKAEIAALEAENAALEAENAALKG [4H2580-AA] ; its interaction score = -0.303

# binder DKIAALKAKNAALKAKNAALKAEIAALKG [4H3066-AA] ; its interaction score = -2.16

FYI, the data here is from paper PMC10397247.
